Biological target: EAAT1 (JumpIn-EAAT1-mock cells) (Homo sapiens, UniProt P43003)
Construct: expressed in transfected cells; host or cells: Jump In T-REx HEK 293
Sequence (P43003 whole entry, the tested form may be a part): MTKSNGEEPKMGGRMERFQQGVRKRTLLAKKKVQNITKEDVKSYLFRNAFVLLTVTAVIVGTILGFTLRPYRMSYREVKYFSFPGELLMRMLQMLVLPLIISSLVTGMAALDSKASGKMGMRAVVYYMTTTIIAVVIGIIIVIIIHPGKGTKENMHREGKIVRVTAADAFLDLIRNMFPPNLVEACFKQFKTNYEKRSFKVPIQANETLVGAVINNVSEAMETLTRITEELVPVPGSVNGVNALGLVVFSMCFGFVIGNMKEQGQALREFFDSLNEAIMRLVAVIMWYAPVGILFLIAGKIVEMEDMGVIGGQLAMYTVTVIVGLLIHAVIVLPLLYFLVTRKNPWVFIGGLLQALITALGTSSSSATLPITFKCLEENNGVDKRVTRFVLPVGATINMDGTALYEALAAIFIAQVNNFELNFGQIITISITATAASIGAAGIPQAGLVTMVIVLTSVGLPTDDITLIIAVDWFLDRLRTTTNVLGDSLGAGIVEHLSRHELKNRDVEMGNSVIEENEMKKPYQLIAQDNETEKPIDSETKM
Assay: Impedance-based TRACT assay (xCELLigence) on mock-transfected JumpIn-EAAT1 cells
Format: cell-based
Conditions: Substrate pEC50 ± SEM (AUC = 0–120 min), −dox, no inhibitor, net AUC 0–120 min
pEC50: −log10 of the molar value.
VALUE_TYPE: pEC50

1. N[C@@H](CCC(=O)O)C(=O)O [L-glutamate] = 4.00

Data credit: paper PMC9169222
